Test target: T1, G9a and GLP (Homo sapiens, UniProt Q96KQ7+Q9H9B1)
T1 sequence (Q96KQ7 2-1210 limits assumed): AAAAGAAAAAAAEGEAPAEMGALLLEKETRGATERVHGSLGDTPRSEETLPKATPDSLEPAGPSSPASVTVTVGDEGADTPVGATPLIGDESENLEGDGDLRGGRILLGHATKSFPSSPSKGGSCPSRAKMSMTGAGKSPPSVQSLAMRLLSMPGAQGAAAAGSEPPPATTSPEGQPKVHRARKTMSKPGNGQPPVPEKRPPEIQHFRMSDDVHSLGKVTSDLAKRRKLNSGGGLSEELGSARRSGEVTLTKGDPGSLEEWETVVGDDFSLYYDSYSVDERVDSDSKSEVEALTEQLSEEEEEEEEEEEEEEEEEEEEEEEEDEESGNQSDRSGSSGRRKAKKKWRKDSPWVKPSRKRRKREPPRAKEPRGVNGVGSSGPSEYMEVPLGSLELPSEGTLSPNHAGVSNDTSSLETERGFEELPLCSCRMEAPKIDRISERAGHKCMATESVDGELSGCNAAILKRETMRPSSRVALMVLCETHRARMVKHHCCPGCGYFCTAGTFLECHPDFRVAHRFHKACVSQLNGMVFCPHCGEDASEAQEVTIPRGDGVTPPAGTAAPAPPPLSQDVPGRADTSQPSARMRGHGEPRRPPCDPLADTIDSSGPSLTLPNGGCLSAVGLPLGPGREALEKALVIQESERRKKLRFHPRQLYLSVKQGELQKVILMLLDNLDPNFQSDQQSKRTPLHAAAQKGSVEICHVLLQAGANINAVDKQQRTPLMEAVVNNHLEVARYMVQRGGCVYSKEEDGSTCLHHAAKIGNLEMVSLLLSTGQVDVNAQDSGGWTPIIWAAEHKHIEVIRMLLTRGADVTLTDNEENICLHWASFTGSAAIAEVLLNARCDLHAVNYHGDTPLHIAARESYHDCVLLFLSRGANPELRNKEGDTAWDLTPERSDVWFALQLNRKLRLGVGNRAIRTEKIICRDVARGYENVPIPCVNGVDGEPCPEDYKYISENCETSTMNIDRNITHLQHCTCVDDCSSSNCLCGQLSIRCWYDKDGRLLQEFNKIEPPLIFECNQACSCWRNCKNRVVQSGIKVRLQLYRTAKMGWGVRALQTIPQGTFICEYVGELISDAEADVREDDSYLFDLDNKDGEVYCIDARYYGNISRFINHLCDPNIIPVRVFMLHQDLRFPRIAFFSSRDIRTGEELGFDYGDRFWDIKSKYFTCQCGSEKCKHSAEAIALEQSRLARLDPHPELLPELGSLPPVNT
T1 sequence (Q9H9B1 2-1298 limits assumed): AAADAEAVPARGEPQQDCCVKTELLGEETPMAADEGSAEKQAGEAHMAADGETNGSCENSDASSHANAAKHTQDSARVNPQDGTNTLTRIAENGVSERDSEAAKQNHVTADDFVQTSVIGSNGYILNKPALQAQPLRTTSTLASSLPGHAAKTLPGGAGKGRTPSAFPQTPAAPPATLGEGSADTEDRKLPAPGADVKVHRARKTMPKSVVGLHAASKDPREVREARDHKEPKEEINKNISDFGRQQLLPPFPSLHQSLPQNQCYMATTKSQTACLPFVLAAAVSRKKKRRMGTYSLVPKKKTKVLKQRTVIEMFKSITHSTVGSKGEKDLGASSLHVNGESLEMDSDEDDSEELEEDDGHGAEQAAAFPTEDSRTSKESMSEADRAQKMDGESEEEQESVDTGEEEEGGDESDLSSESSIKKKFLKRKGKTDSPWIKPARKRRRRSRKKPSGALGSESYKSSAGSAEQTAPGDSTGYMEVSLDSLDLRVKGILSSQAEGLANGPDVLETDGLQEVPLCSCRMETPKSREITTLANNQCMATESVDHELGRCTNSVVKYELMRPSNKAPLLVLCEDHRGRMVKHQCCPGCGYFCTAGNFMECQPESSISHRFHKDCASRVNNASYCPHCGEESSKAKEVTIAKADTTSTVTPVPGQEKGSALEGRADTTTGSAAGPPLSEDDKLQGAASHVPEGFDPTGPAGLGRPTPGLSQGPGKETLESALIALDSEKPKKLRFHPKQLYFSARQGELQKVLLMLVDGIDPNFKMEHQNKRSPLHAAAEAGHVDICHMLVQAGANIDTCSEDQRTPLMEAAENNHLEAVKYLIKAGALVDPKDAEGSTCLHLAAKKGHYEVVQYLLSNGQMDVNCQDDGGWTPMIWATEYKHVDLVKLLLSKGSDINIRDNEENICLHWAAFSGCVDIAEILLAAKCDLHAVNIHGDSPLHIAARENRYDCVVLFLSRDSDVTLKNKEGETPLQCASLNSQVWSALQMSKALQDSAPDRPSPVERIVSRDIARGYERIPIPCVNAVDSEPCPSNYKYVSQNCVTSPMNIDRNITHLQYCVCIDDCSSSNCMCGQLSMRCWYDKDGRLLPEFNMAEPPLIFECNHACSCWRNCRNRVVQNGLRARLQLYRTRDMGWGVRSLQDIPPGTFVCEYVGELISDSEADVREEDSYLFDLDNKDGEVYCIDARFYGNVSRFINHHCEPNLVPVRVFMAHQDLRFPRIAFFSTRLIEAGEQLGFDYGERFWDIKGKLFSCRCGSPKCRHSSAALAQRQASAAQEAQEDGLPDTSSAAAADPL
Method notes: Triple SILAC pull-down after UNC0638 treatment of 293T cells, DMSO/UNC0638 ratio of protein captured by 3×MBT;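 further: mass spectrometry (Q-Exactive) SILAC quantitation, DMSO/UNC0638 ratio computed after subtracting 3×MBTD355N mutant pull-down background, only proteins with at least twofold 3×MBT over mutant signal considered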
Format: cell-based
Parameters: cells were treated for 24 hours with UNC0638 at 2.5 μM or DMSO vehicle control; endogenous in cells; host or cells: HEK 293T
Assay setup: SILAC ratio DMSO/UNC0638 of protein pulled down with 3xMBT; UNC0638 in heavy SILAC media
# Relative to UNC0638 UNC Heavy values compiled below
Give the number; log base 2 is assumed, so skip it.

Here is how some molecules turned out for Relative to UNC0638 UNC Heavy.
Molecule	Unit abbreviation	Relative to UNC0638 UNC Heavy
C14orf166 (protein, UniProt Q9Y224 1-244, looked up) RNA transcription, …: MFRRKLTALDYHNPAGFNCKDETEFRNFIVWLEDQKIRHYKIEDRGNLRNIHSSDWPKFFEKYLRDVNCPFKIQDRQEAIDWLLGLAVRLEYGDNAEKYKDLVPDNSKTADNATKNAEPLINLDVNNPDFKAGVMALANLLQIQRHDDYLVMLKAIRILVQERLTQDAVAKANQTKEGLPVALDKHILGFDTGDAVLNEAAQILRLLHIEELRELQTKINEAIVAVQAIIADPKTDHRLGKVGR	log base 2	0.09
PCBP2 (protein, UniProt Q15366 1-365, looked up) Poly(rC)-binding protein 2: MDTGVIEGGLNVTLTIRLLMHGKEVGSIIGKKGESVKKMREESGARINISEGNCPERIITLAGPTNAIFKAFAMIIDKLEEDISSSMTNSTAASRPPVTLRLVVPASQCGSLIGKGGCKIKEIRESTGAQVQVAGDMLPNSTERAITIAGIPQSIIECVKQICVVMLETLSQSPPKGVTIPYRPKPSSSPVIFAGGQDRYSTGSDSASFPHTTPSMCLNPDLEGPPLEAYTIQGQYAIPQPDLTKLHQLAMQQSHFPMTHGNTGFSGIESSSPEVKGYWGLDASAQTTSHELTIPNDLIGCIIGRQGAKINEIRQMSGAQIKIANPVEGSTDRQVTITGSAASISLAQYLINVRLSSETGGMGSS	log base 2	0.13
HNRNPD (protein, UniProt Q14103 2-355, looked up) Heterogeneous nuclear …: SEEQFGGDGAAAAATAAVGGSAGEQEGAMVAATQGAAAAAGSGAGTGGGTASGGTEGGSAESEGAKIDASKNEEDEGHSNSSPRHSEAATAQREEWKMFIGGLSWDTTKKDLKDYFSKFGEVVDCTLKLDPITGRSRGFGFVLFKESESVDKVMDQKEHKLNGKVIDPKRAKAMKTKEPVKKIFVGGLSPDTPEEKIREYFGGFGEVESIELPMDNKTNKRRGFCFITFKEEEPVKKIMEKKYHNVGLSKCEIKVAMSKEQYQQQQQWGSRGGFAGRARGRGGGPSQNWNQGYSNYWNQGYGNYGYNSQGYGGYGGYDYTGYNNYYGYGDYSNQQSGYGKVSRRGGHQNSYKPY	log base 2	0.06
HNRNPA2B1 (protein, UniProt P22626 1-353, looked up) Heterogeneous nuclear …: MEKTLETVPLERKKREKEQFRKLFIGGLSFETTEESLRNYYEQWGKLTDCVVMRDPASKRSRGFGFVTFSSMAEVDAAMAARPHSIDGRVVEPKRAVAREESGKPGAHVTVKKLFVGGIKEDTEEHHLRDYFEEYGKIDTIEIITDRQSGKKRGFGFVTFDDHDPVDKIVLQKYHTINGHNAEVRKALSRQEMQEVQSSRSGRGGNFGFGDSRGGGGNFGPGPGSNFRGGSDGYGSGRGFGDGYNGYGGGPGGGNFGGSPGYGGGRGGYGGGGPGYGNQGGGYGGGYDNYGGGNYGSGNYNDFGNYNQQPSNYGPMKSGNFGGSRNMGGPYGGGNYGPGGSGGSGGYGGRSRY	log base 2	0.07
DRG1 (protein, UniProt Q9Y295 2-367, looked up) Developmentally-regulated …: SSTLAKIAEIEAEMARTQKNKATAHHLGLLKARLAKLRRELITPKGGGGGGPGEGFDVAKTGDARIGFVGFPSVGKSTLLSNLAGVYSEVAAYEFTTLTTVPGVIRYKGAKIQLLDLPGIIEGAKDGKGRGRQVIAVARTCNLILIVLDVLKPLGHKKIIENELEGFGIRLNSKPPNIGFKKKDKGGINLTATCPQSELDAETVKSILAEYKIHNADVTLRSDATADDLIDVVEGNRVYIPCIYVLNKIDQISIEELDIIYKVPHCVPISAHHRWNFDDLLEKIWDYLKLVRIYTKPKGQLPDYTSPVVLPYSRTTVEDFCMKIHKNLIKEFKYALVWGLSVKHNPQKVGKDHTLEDEDVIQIVKK	log base 2	0.36
ILKAP (protein, UniProt Q9H0C8 1-392, looked up) Integrin-linked …: MDLFGDLPEPERSPRPAAGKEAQKGPLLFDDLPPASSTDSGSGGPLLFDDLPPASSGDSGSLATSISQMVKTEGKGAKRKTSEEEKNGSEELVEKKVCKASSVIFGLKGYVAERKGEREEMQDAHVILNDITEECRPPSSLITRVSYFAVFDGHGGIRASKFAAQNLHQNLIRKFPKGDVISVEKTVKRCLLDTFKHTDEEFLKQASSQKPAWKDGSTATCVLAVDNILYIANLGDSRAILCRYNEESQKHAALSLSKEHNPTQYEERMRIQKAGGNVRDGRVLGVLEVSRSIGDGQYKRCGVTSVPDIRRCQLTPNDRFILLACDGLFKVFTPEEAVNFILSCLEDEKIQTREGKSAADARYEAACNRLANKAVQRGSADNVTVMVVRIGH	log base 2	−0.07
PRDX6 (protein, UniProt P30041 2-224, looked up) Peroxiredoxin-6: PGGLLLGDVAPNFEANTTVGRIRFHDFLGDSWGILFSHPRDFTPVCTTELGRAAKLAPEFAKRNVKLIALSIDSVEDHLAWSKDINAYNCEEPTEKLPFPIIDDRNRELAILLGMLDPAEKDEKGMPVTARVVFVFGPDKKLKLSILYPATTGRNFDEILRVVISLQLTAEKRVATPVDWKDGDSVMVLPTIPEEEAKKLFPKGVFTKELPSGKKYLRYTPQP	log base 2	0.27

Next, consider the following molecule.
Prompt: # Relative to UNC0638 UNC Heavy lookup, item SRP14 (protein, UniProt P37108 2-136, looked up) Signal recognition particle …: VLLESEQFLTELTRLFQKCRTSGSVYITLKKYDGRTKPIPKKGTVEGFEPADNKCLLRATDGKKKISTVVSSKEVNKFQMAYSNLLRANMDGLKKRDKKNKTKKTKAAAAAAAAAPAAAATAPTTAATTAATAAQ
Completion: 0.30
